tested on: HepG2 cells; experiment: MTT cytotoxicity assay, HepG2; type: cell-based, human; settings: 48 h exposure
Each record is given met if its reported IC50 is strictly below 1 µM. Records at or above 1 µM are given not met.

Data request: Given the entry Cc1ccc2[nH]c3c(c2c1)C[C@@]1(C)C(CC[C@]2(C)C1CC=C1C4[C@@H](C)[C@H](C)CC[C@]4(C(=O)NCCCCN)CC[C@]12C)C3(C)C (some centres unmarked) [6a] , would its reported IC50 be below 1 µM?
Data returned: not met

Data request: Another compound to look at: Cc1ccc2[nH]c3c(c2c1)C[C@@]1(C)C(CC[C@]2(C)C1CC=C1C4[C@@H](C)[C@H](C)CC[C@]4(C(=O)NCCN4CCCCC4)CC[C@]12C)C3(C)C (some centres unmarked) [4d]
Data returned: not met

Data request: Another compound: Cc1ccc2[nH]c3c(c2c1)C[C@@]1(C)C(CC[C@]2(C)C1CC=C1C4[C@@H](C)[C@H](C)CC[C@]4(C(=O)NCCCN4CCN(C)CC4)CC[C@]12C)C3(C)C (some centres unmarked) [5f]
Data returned: met

Data request: Now the compound Cc1ccc2[nH]c3c(c2c1)C[C@@]1(C)C(CC[C@]2(C)C1CC=C1C4[C@@H](C)[C@H](C)CC[C@]4(C(=O)NCCN4CCN(C)CC4)CC[C@]12C)C3(C)C (some centres unmarked) [4f]
Data returned: not met

###

molecular target: Human Topoisomerase IIα (Homo sapiens, UniProt P11388); construct: purchased USB, Affymetrix, Waltham, MA, USA; experiment: Topoisomerase II relaxation assay (supercoiled pBR322); assay type: biochemical; conditions: 20 μM compound; read-out: Topo II Inhibition (%) 20 μM
Sequence (P11388 whole entry): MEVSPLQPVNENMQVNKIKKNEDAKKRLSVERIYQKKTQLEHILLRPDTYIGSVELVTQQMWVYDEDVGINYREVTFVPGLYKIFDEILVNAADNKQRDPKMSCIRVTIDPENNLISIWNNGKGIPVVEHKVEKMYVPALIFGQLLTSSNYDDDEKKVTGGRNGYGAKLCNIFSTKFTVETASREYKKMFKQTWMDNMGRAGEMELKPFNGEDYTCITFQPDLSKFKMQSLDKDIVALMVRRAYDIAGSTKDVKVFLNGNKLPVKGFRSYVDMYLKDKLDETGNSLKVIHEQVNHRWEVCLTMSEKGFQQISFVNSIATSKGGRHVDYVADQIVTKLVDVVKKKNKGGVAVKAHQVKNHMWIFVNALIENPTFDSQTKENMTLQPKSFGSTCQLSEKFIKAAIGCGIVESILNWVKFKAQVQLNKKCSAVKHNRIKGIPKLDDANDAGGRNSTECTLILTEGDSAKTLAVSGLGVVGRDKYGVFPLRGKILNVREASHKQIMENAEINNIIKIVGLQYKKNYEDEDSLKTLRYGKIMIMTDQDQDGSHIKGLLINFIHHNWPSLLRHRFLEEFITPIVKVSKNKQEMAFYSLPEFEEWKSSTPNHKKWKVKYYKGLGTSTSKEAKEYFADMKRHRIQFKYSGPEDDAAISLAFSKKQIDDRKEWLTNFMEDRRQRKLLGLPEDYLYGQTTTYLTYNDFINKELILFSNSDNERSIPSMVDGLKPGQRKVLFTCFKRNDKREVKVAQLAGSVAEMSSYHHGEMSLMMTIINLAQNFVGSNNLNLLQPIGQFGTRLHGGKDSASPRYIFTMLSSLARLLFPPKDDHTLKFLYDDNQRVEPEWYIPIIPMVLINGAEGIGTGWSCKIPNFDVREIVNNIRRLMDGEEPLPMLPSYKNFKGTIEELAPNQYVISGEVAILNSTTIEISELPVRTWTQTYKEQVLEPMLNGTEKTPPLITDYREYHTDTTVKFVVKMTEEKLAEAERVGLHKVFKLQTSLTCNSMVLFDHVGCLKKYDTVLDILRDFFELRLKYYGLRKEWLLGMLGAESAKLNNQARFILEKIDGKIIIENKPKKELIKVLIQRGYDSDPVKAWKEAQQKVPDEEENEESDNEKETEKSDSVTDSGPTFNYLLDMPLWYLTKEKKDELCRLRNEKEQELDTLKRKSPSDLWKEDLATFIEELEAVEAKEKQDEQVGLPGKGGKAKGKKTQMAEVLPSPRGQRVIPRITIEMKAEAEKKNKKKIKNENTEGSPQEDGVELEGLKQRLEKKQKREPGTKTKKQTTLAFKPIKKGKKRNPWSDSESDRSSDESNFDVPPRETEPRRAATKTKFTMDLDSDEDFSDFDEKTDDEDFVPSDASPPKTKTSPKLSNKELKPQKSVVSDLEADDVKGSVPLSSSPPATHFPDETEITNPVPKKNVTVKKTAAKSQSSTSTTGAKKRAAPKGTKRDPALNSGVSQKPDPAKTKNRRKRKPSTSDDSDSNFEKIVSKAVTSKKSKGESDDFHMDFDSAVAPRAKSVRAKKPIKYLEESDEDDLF
We use 30% as the dividing line for inhibition at 20 µM: on or above the line is fulfilled, below is not fulfilled.

Data request: Say whether Cc1ccc2[nH]c3c(c2c1)C[C@@]1(C)C(CC[C@]2(C)C1CC=C1C4[C@@H](C)[C@H](C)CC[C@]4(C(=O)NCCN4CCCCC4)CC[C@]12C)C3(C)C (some centres unmarked) shows inhibition at 20 µM of 30% or more.
Data returned: fulfilled

Data request: Then this compound: Cc1ccc2[nH]c3c(c2c1)C[C@@]1(C)C(CC[C@]2(C)C1CC=C1C4[C@@H](C)[C@H](C)CC[C@]4(C(=O)NCCCN)CC[C@]12C)C3(C)C (some centres unmarked)
Data returned: fulfilled

Data request: Next entry: COc1cc([C@@H]2c3cc4c(cc3[C@@H](O[C@@H]3O[C@@H]5CO[C@@H](C)O[C@H]5[C@H](O)[C@H]3O)[C@H]3COC(=O)[C@H]23)OCO4)cc(OC)c1O [VP-16, etoposide, reference compound]
Data returned: fulfilled

Data request: Another compound: Cc1ccc2[nH]c3c(c2c1)C[C@@]1(C)C(CC[C@]2(C)C1CC=C1C4[C@@H](C)[C@H](C)CC[C@]4(C(=O)NCCCCN)CC[C@]12C)C3(C)C (some centres unmarked)
Data returned: not fulfilled

Data request: Try this compound next: Cc1ccc2[nH]c3c(c2c1)C[C@@]1(C)C(CC[C@]2(C)C1CC=C1C4[C@@H](C)[C@H](C)CC[C@]4(C(=O)NCCCCN4CCN(C)CC4)CC[C@]12C)C3(C)C (some centres unmarked)
Data returned: fulfilled

Data origin: paper PMC7215373
